- tested.target: T1, PTP1B/D181A/Q262A, catalytic domain (residues 1 to 321) (human, UniProt P18031 1-321)
- T1 construct: range 1-321; Used in vitro (ITC, kinetics); also called PTP1B substrate-trapping double mutant
- T1 sequence (looked up): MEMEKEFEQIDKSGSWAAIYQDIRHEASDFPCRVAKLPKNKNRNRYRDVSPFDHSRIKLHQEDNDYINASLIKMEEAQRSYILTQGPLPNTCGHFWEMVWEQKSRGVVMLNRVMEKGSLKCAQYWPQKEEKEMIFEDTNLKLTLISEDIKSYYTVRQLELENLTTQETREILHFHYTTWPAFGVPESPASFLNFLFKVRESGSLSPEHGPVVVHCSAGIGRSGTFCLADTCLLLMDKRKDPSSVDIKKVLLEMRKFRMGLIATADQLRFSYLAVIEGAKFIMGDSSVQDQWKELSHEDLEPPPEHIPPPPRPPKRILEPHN
- test.method.notes: ITC, 25 C, pH 7.0
[ ]: non-standard residue; d: D form. F2Pmp = N[C@@H](Cc1ccc(C(F)(F)P(=O)(O)O)cc1)C(=O)O
endpoint.label: Kd (nM)
Number only, in nM; omit the unit.

So what does the record say about Kd for Ac-DADE[F2Pmp]L-NH2 (Synthetic hexapeptide printed in three-letter code; also called F2Pmp-containing peptide; non-hydrolyzable substrate analog) [Ac-Asp-Ala-Asp-Glu-F2Pmp-Leu-NH2] ?
6.8
